Values from patent US9497963B2

- Tested on: L. dispar PBP 2
- measurement-protocol: Pheromone-binding protein (PBP) ligand binding assay, PBP2
- Set-up: species or system Lymantria dispar
- measurement-setup: member tested within library 3c{2, 1-5}

structure-as-smiles: CCOc1ccc(OCCC(C)C)cc1
subject-of-test: L. dispar PBP 2
PBP2 (% bound) / %: 14

structure-as-smiles: CCCOc1ccc(OCC)cc1
subject-of-test: L. dispar PBP 2
PBP2 (% bound) / %: 22

structure-as-smiles: CCOc1ccc(OCC)cc1
subject-of-test: L. dispar PBP 2
PBP2 (% bound) / %: 33

structure-as-smiles: CCOc1ccc(OC)cc1
subject-of-test: L. dispar PBP 2
PBP2 (% bound) / %: 40

---

- Test system: male gypsy moth antenna
- measurement-protocol: Coupled gas chromatographic-electroantennographic detection (GC-EAD)
- Design: species or system Lymantria dispar
- measurement-setup: EAD peak size and shape (sharp/broad)
readout-type: GC-EAD activity

compound: C=CCOc1ccccc1OCCC(C)C [3a{5,6}, 1-allyloxy-2-isopentoxybenzene]
recorded-value: + broad

compound: CCCCOc1ccccc1OCCC(C)C [3a{4,5}, 1-butoxy-2-(3-methyl-butoxy) benzene]
recorded-value: + broad

compound: C=CCOc1cccc(OC)c1 [3b{1,6}, 1-allyloxy-3-methoxybenzene]
recorded-value: None

compound: CCCCOc1cccc(OCC)c1 [3b{2,4}, 1-butoxy-3-ethoxy benzene]
recorded-value: None

---

- System: L. dispar PBP 2
- measurement-protocol: Pheromone-binding protein (PBP) ligand binding assay, PBP2
- Set-up: species or system Lymantria dispar
- measurement-setup: tested as single compound; means ± S.E., 4 replicates
Reported PBP2 (% bound) values are given for each entry in this list.

compound: CCCOc1ccc(OCCC)cc1
subject-of-test: L. dispar PBP 2
PBP2 (% bound): 5 ± 0.2%
--
compound: COc1ccc(OC)cc1
subject-of-test: L. dispar PBP 2
PBP2 (% bound): 13 ± 2.1%
--
compound: CC(C)CCOc1ccc(OCCC(C)C)cc1
subject-of-test: L. dispar PBP 2
PBP2 (% bound): 8 ± 0.2%
--
compound: CCOc1ccc(OCC)cc1
subject-of-test: L. dispar PBP 2
PBP2 (% bound): 19 ± 0.2%
--
compound: CCCCCCCCCC[C@@H]1O[C@@H]1CCCCC(C)C (relative stereo) [(+)-disparlure, cis-(7R,8S)-7,8-epoxy-2-methyloctadecane, reference compound]
subject-of-test: L. dispar PBP 2
PBP2 (% bound): 71 ± 23%
--
compound: CCCCOc1ccc(OCCCC)cc1
subject-of-test: L. dispar PBP 2
PBP2 (% bound): 8 ± 0.3%

---

- System: male gypsy moth antenna response to pheromone (+)-1
- measurement-protocol: EAG short-term (STI) and long-term (LTI) inhibition of pheromone signaling (Example 5)
- Parameters: species or system Lymantria dispar
- measurement-setup: Lymantria dispar, pure (+)-1 100 ng plume following mixed plume with 100 μg compound; mean ± S.E.; read-out: Activity (%): long-term inhibition (LTI)
readout-type: inhibition at 100 µg, 0.1 mg (%)

structure-as-smiles: CCCCOc1ccc(O)cc1
recorded-value: 26
//
structure-as-smiles: CCCCOc1ccccc1O
recorded-value: 5
//
structure-as-smiles: COc1ccc(O)cc1
recorded-value: 10
//
structure-as-smiles: C=CCOc1cccc(OCCC(C)C)c1
recorded-value: 15
//
structure-as-smiles: CCCCOc1cccc(O)c1
recorded-value: -1
//
structure-as-smiles: CCCCOc1ccc(OCCC)cc1
recorded-value: 22
//
structure-as-smiles: C=CCOc1cccc(OCC=C)c1
recorded-value: 33
//
structure-as-smiles: C=CCOc1ccccc1O
recorded-value: 16
//
structure-as-smiles: CCCOc1ccccc1OCCC
recorded-value: 36
//
structure-as-smiles: CCCOc1ccc(OCC)cc1
recorded-value: 58
//
structure-as-smiles: C=CCOc1ccc(OCCC)cc1
recorded-value: 39
//
structure-as-smiles: CCOc1cccc(OCC)c1
recorded-value: 39
//
structure-as-smiles: CCCOc1ccc(OC)cc1
recorded-value: 39
//
structure-as-smiles: C=CCOc1cccc(OCC)c1
recorded-value: 25
//
structure-as-smiles: C=CCc1ccc(OCC)c(OC)c1
recorded-value: 20
//
structure-as-smiles: CCOc1ccc(O)cc1
recorded-value: 7
//
structure-as-smiles: CCCOc1ccc(OCCC)cc1
recorded-value: 29
//
structure-as-smiles: CCCCOc1ccccc1OCCCC
recorded-value: 49
//
structure-as-smiles: CCOc1ccccc1O
recorded-value: 6
//
structure-as-smiles: COc1ccc(OC)cc1
recorded-value: -7
